Tested on: Setaria viridis
Assay: Pre-emergence herbicidal effect
Type: in vivo
Conditions: 1280 g/ha, visual assessment after 3 weeks
Description: 1. Pre-Emergence Herbicidal Effect and Crop Plant Compatibility Seeds of monocotyledonous and dicotyledonous weed plants and crop plants are placed in wood-fiber pots in sandy loam and covered with soil. […] The damage to the test plants is assessed visually after a test period of 3 weeks by comparison with untreated controls (herbicidal activity in percent (%): 100% action=the plants have died, 0% action=like control plants). […]
Recorded measurements of herbicidal activity SETVI, one per entry

# Compound, herbicidal activity SETVI [%]
data = [
    ("CS(=O)(=O)c1ncc(N[C@@H]2CCc3ccccc32)cn1", 90),
    ("CCc1ccc2c(c1)C(Nc1cnc(S(C)(=O)=O)nc1)CCO2 (racemic)", 100),
    ("Cc1ccc2c(c1)[C@H](Nc1cnc(S(C)(=O)=O)nc1)[C@@H](C)C2", 100),
    ("CCc1ccc2c(c1)C(Nc1cnc(S(C)(=O)=O)nc1C(=O)O)CCO2 (racemic)", 100),
    ("Cc1ccc2c(c1)[C@H](Nc1cnc(S(C)(=O)=O)nc1C(N)=O)[C@@H](C)C2", 90),
]
